- Test system: barley powdery mildew Erysiphe graminis
- protocol: Barley powdery mildew control on barley plants
- Type: in vivo
- reported-conditions: 2000 ppm; soil and leaves; 10 days; controls less than 5%
observable: % Control, barley powdery mildew (%)

compound="Cc1cccc(C)c1N(CCCC#N)S(C)(=O)=O [Example 146]" result=92
compound="Cc1cccc(C)c1N(C1CCOC1=O)S(C)(=O)=O (centres unmarked) [Example 123]" result=95
compound="CC(=O)CN(c1ccc(C)c(C)c1)S(C)(=O)=O [Example 272]" result=99
compound="Cc1ccc(N(CCCC#N)S(C)(=O)=O)cc1C [Example 148]" result=89
compound="CS(=O)(=O)N(CCCC#N)c1ccc(Cl)c(Cl)c1 [Example 147]" result=96

* * *

Reported growth regulatory or herbicidal effect score values are given for each entry in this list.
- Tested on: Wheat (Triticum aestivum)
- protocol: Pre-emergence soil surface spray, wheat
- Format: in vivo
- reported-conditions: soil surface spray 2.8 kg/ha, 21 days, 0=no effect, 100=complete kill
observable: growth regulatory or herbicidal effect score

compound="CCCS(=O)(=O)N(c1c(C)cccc1C)C(C)C(=O)OC(C)C (centres unmarked)" result=0
compound="CCOC(=O)C(C)N(c1c(C)cccc1C)S(C)(=O)=O (centres unmarked)" result=0
compound=CS(=O)(=O)N(CC#N)c1ccc(Cl)c(Cl)c1 result=0
compound="CCCS(=O)(=O)N(c1c(C)cccc1C)C(C)C(=O)OCC (centres unmarked)" result=10
compound="CCOC(=O)C(C)N(c1c(C)cccc1Cl)S(C)(=O)=O (centres unmarked)" result=0

* * *

// growth regulatory or herbicidal effect score lookup, one value per entry
- Test system: Barley (Hordeum vulgare)
- protocol: Pre-emergence soil surface spray, barley
- Type: in vivo
- reported-conditions: soil surface spray 2.8 kg/ha, 21 days, 0=no effect, 100=complete kill
observable: growth regulatory or herbicidal effect score

molecule="CCCS(=O)(=O)N(c1c(C)cccc1C)C(C)C(=O)OCC (centres unmarked)" result=30
molecule="CCCS(=O)(=O)N(c1c(C)cccc1C)C(C)C(=O)OC(C)C (centres unmarked)" result=0
molecule=CS(=O)(=O)N(CC#N)c1ccc(Cl)c(Cl)c1 result=0
molecule="CCOC(=O)C(C)N(c1c(C)cccc1C)S(C)(=O)=O (centres unmarked)" result=0
molecule="CCOC(=O)C(C)N(c1c(C)cccc1Cl)S(C)(=O)=O (centres unmarked)" result=0

* * *

Quick reference: pest or weed control at 11200 g/ha of the listed items.
- Test system: Mustard (Sinapis alba)
- protocol: Post-emergence foliar spray, herbicidal/growth regulant response, mustard
- Type: in vivo
- reported-conditions: 168 h, foliar spray 11.2 kg/ha, 7 days, 0=no effect, 100=complete kill, read-out: herbicidal or growth regulant response index
observable: pest or weed control at 11200 g/ha

compound="CCOC(=O)C(C)N(c1ccccc1Cl)S(C)(=O)=O (centres unmarked) [Example 25]" result=80%
compound="CCCCS(=O)(=O)N(c1c(C)cccc1C)C(C)C(=O)OCC (centres unmarked) [Example 27]" result=100%
compound="CCOC(=O)C(C)N(c1c(C)cccc1Cl)S(C)(=O)=O (centres unmarked) [Example 22]" result=80%
compound="CCCS(=O)(=O)N(c1c(C)cccc1C)C(C)C(=O)OCC (centres unmarked) [Example 24]" result=100%
compound="CCOC(=O)C(C)N(c1c(C)cccc1C)S(=O)(=O)CC (centres unmarked) [Example 26]" result=100%
compound="CCOC(=O)C(C)N(c1c(C)cccc1C)S(C)(=O)=O (centres unmarked) [Example 15]" result=90%
compound="CCOC(=O)C(CC)N(c1c(C)cccc1C)S(C)(=O)=O (centres unmarked) [Example 95]" result=100%
compound="CCCS(=O)(=O)N(c1c(C)cccc1C)C(C)C(=O)OC(C)C (centres unmarked) [Example 3]" result=90%

* * *

Reported growth regulatory or herbicidal effect score values for a set of compounds
- System: Barnyard Grass
- protocol: Soil incorporation (I), barnyard grass
- Assay type: in vivo
- reported-conditions: I soil incorporation 6.5 ppm, 21 days, 0=no effect, 100=complete suppression
observable: growth regulatory or herbicidal effect score

compound=Cc1ccc(N(CC(N)=S)S(C)(=O)=O)cc1Cl system_under_test="Barnyard Grass" result=60
compound=Cc1ccc(N(CC#N)S(C)(=O)=O)cc1Cl system_under_test="Barnyard Grass" result=70
compound=CCS(=O)(=O)N(CC#N)c1ccc(Cl)c(Cl)c1 system_under_test="Barnyard Grass" result=90
compound=CS(=O)(=O)N(CC(N)=S)c1ccc(Cl)c(Cl)c1 system_under_test="Barnyard Grass" result=90
compound=CCS(=O)(=O)N(CC(N)=S)c1ccc(Cl)c(Cl)c1 system_under_test="Barnyard Grass" result=90

* * *

- Test system: Ryegrass (Lolium perenne)
- protocol: Post-emergence foliar spray, herbicidal/growth regulant response, ryegrass
- Type: in vivo
- reported-conditions: 168 h, foliar spray 11.2 kg/ha, 7 days, 0=no effect, 100=complete kill, read-out: herbicidal or growth regulant response index
Note to self: pest or weed control at 11200 g/ha under 20% means condition met, ties and anything higher get condition not met.

compound="CCCS(=O)(=O)N(c1c(C)cccc1C)C(C)C(=O)OC(C)C (centres unmarked) [Example 3]" assigned_label="condition met"
compound="CCOC(=O)C(CC)N(c1c(C)cccc1C)S(C)(=O)=O (centres unmarked) [Example 95]" assigned_label="condition met"
compound="CCCS(=O)(=O)N(c1c(C)cccc1C)C(C)C(=O)OCC (centres unmarked) [Example 24]" assigned_label="condition not met"
compound="CCOC(=O)C(C)N(c1c(C)cccc1C)S(=O)(=O)CC (centres unmarked) [Example 26]" assigned_label="condition not met"
compound="CCOC(=O)C(C)N(c1c(C)cccc1C)S(C)(=O)=O (centres unmarked) [Example 15]" assigned_label="condition met"
compound="CCOC(=O)C(C)N(c1ccccc1Cl)S(C)(=O)=O (centres unmarked) [Example 25]" assigned_label="condition met"
compound="CCOC(=O)C(C)N(c1c(C)cccc1Cl)S(C)(=O)=O (centres unmarked) [Example 22]" assigned_label="condition met"

* * *

- Test system: French beans (Phaseolus vulgaris)
- protocol: Post-emergence foliar spray, herbicidal/growth regulant response, French beans
- Assay type: in vivo
- reported-conditions: foliar spray 11.2 kg/ha, 7 days, 0=no effect, 100=complete kill
- Text: Seeds of the plant species listed below were sown in anodised aluminium pans, 19 cm long×9.5 cm wide×5 cm deep, containing John Innes I potting compost. […] After seven days growth in the controlled environment room, the plants were visually assessed for any herbicidal or growth regulant response. All differences from the untreated control were scored according to an index where 0=no effect and 100=complete kill. […]
observable: herbicidal or growth regulant response index

molecule="CCCS(=O)(=O)N(c1c(C)cccc1C)C(C)C(=O)OCC (centres unmarked)" result=100
molecule="CCOC(=O)C(C)N(c1c(C)cccc1C)S(C)(=O)=O (centres unmarked)" result=70
molecule="CCOC(=O)C(C)N(c1c(C)cccc1Cl)S(C)(=O)=O (centres unmarked)" result=80
molecule="CCOC(=O)C(CC)N(c1c(C)cccc1C)S(C)(=O)=O (centres unmarked)" result=100
molecule="CCCS(=O)(=O)N(c1c(C)cccc1C)C(C)C(=O)OC(C)C (centres unmarked)" result=80

* * *

- Tested on: potato blight Phytophthora infestans
- Assay type: in vivo
- reported-conditions: 2000 ppm; 5 days; controls less than 5%
observable: % Control, potato blight (%)

compound=CCCS(=O)(=O)N(CC#N)c1ccc(Cl)c(Cl)c1 result=76
compound=CC(=O)CN(c1ccc(C)c(C)c1)S(C)(=O)=O result=62
compound="CCc1ccccc1N(C(C)C(=O)N1CCOCC1)S(C)(=O)=O (stereo not shown)" result=93
compound=Cc1cccc(C)c1N(CC#N)S(C)(=O)=O result=56

* * *

Measured pest or weed control at 26 µg/mL, listed per entry.
- Tested on: Ryegrass (Lolium perenne)
- protocol: Soil incorporation (attaclay/sand dust), growth regulatory or herbicidal effects, ryegrass
- Assay type: in vivo
- reported-conditions: 504 h, soil incorporation 26 ppm, 21 days, 0=no effect, 100=complete kill, read-out: growth regulatory or herbicidal effect score
observable: pest or weed control at 26 µg/mL

compound="CCOC(=O)C(C)N(c1c(C)cccc1Cl)S(C)(=O)=O (stereo not drawn) [Example 22]" result=90%
compound="CCOC(=O)C(CC)N(c1c(C)cccc1C)S(C)(=O)=O (stereo not drawn) [Example 95]" result=90%
compound="CCCS(=O)(=O)N(c1c(C)cccc1C)C(C)C(=O)OCC (stereo not drawn) [Example 24]" result=100%
compound="CCOC(=O)C(C)N(c1c(C)cccc1C)S(C)(=O)=O (stereo not drawn) [Example 15]" result=100%
compound="CS(=O)(=O)N(CC#N)c1ccc(Cl)c(Cl)c1 [Example 44]" result=5%
compound="CCCS(=O)(=O)N(c1c(C)cccc1C)C(C)C(=O)OC(C)C (stereo not drawn) [Example 3]" result=90%

* * *

- Tested on: Barnyardgrass (Echinochloa crus-galli)
- protocol: Post-emergence foliar spray of monocotyledons, barnyardgrass
- Type: in vivo
- reported-conditions: foliar spray 2.8 kg/ha, 14 days, 0=no effect, 100=complete kill
Here the recorded growth regulatory or herbicidal effect score is given for each entry.
observable: growth regulatory or herbicidal effect score

compound="CS(=O)(=O)N(CC(N)=S)c1ccc(Cl)c(Cl)c1 [Example 85]" result=90
compound="CS(=O)(=O)N(CC#N)c1ccc(Cl)c(Cl)c1 [Example 44]" result=100
compound="CCS(=O)(=O)N(CC(N)=S)c1ccc(Cl)c(Cl)c1 [Example 156]" result=90
compound="Cc1ccc(N(CC(N)=S)S(C)(=O)=O)cc1Cl [Example 150]" result=80
compound="Cc1ccc(N(CC#N)S(C)(=O)=O)cc1Cl [Example 131]" result=90
compound="CCS(=O)(=O)N(CC#N)c1ccc(Cl)c(Cl)c1 [Example 137]" result=80
